system: western flower thrips (Frankliniella occidentalis); assay: Insecticidal activity against western flower thrips; format: in vivo; conditions: Frankliniella occidentalis, 48 h; 500 ppm chemical solution sprinkled (2.5 mg/cm^2), larvae on common bean leaf, after 2 days; read-out: death rate
QUANTITY: mortality at 500 µg/mL

Given the entry O=C(Nc1cc(F)ccn1)C1=C(O)CC(c2nc(-c3ccccc3F)no2)NC1=O (stereo not shown) , what mortality at 500 µg/mL was observed with western flower thrips (Frankliniella occidentalis)?
≥ 90%

Given the entry N#Cc1ccc(NC(=O)C2=C(O)CC(c3cnc(Cl)c(-c4ccccc4)c3)NC2=O)cc1 (stereo not shown) , what mortality at 500 µg/mL was observed with western flower thrips (Frankliniella occidentalis)?
≥ 90%

Given the entry O=C(Nc1ccc(F)cc1)C1=C(O)CC(c2ccc(C(F)(F)F)c(-c3ccc(F)cc3)c2)NC1=O (stereo not shown) , what mortality at 500 µg/mL was observed with western flower thrips (Frankliniella occidentalis)?
≥ 90%

Given the entry N#Cc1ccc(NC(=O)C2=C(O)CC(c3cnc(Cl)c(-c4ccccc4)c3)NC2=O)cn1 (stereo not shown) , what mortality at 500 µg/mL was observed with western flower thrips (Frankliniella occidentalis)?
≥ 90%

---

Tested on: western flower thrips (Frankliniella occidentalis)
Test: Insecticidal activity against western flower thrips
Assay type: in vivo
Settings: Frankliniella occidentalis, 48 h; 500 ppm chemical solution sprinkled (2.5 mg/cm^2), larvae on common bean leaf, after 2 days; read-out: death rate
Description: Wet filter paper was laid on each styrol cup having an inner diameter of 7 cm, and a common bean leaf cut into a 3 cm square was placed thereon, and inoculated with 20 western flower thrips (Frankliniella occidentalis) larvae. A 10% by mass emulsion of the presently invented compound prepared according to the above formulation example for an emulsion was diluted with water containing a spreader to prepare a chemical solution having a concentration of 500 ppm. […]
QUANTITY: mortality at 500 µg/mL

Return reported mortality at 500 µg/mL; argument: O=C(Nc1cnc(Cl)cn1)C1=C(O)CC(c2nc(-c3ccc(F)nc3)no2)NC1=O (stereo not shown)
≥ 90%

Return reported mortality at 500 µg/mL; argument: O=C(Nc1cc(Br)ccn1)C1=C(O)CC(c2cnc(Cl)c(-c3cnccc3F)c2)NC1=O (stereo not shown)
≥ 90%

Return reported mortality at 500 µg/mL; argument: O=C(Nc1ccc(F)cn1)C1=C(O)CC(c2nc(-c3cnc(C(F)(F)F)s3)no2)NC1=O (stereo not shown)
≥ 90%

Return reported mortality at 500 µg/mL; argument: O=C(Nc1cc(Br)cc(F)n1)C1=C(O)CC(c2cnc(Cl)c(-c3cnccc3F)c2)NC1=O (stereo not shown)
≥ 90%

Return reported mortality at 500 µg/mL; argument: O=C(Nc1ccc(C(F)(F)F)nc1)C1=C(O)CC(c2cnc(Cl)c(-c3ccc(F)nc3)c2)NC1=O (stereo not shown)
≥ 90%

Return reported mortality at 500 µg/mL; argument: O=C(Nc1cccc(F)n1)C1=C(O)CC(c2nc(-c3ccncc3Cl)no2)NC1=O (stereo not shown)
≥ 90%

Return reported mortality at 500 µg/mL; argument: O=C(Nc1ccc(F)c(F)c1)C1=C(O)CC(c2nc(-c3ccc(F)cc3F)no2)NC1=O (stereo not shown)
≥ 90%

Return reported mortality at 500 µg/mL; argument: O=C(Nc1cnccn1)C1=C(O)CC(c2cnc(Cl)c(-c3cncc(Cl)c3)c2)NC1=O (stereo not shown)
≥ 90%

Return reported mortality at 500 µg/mL; argument: O=C(Nc1ccccn1)C1=C(O)CC(c2nc(-c3ccccc3F)no2)NC1=O (stereo not shown)
≥ 90%

Return reported mortality at 500 µg/mL; argument: O=C(Nc1ccc(F)cc1)C1=C(O)CC(c2nc(-c3ccccn3)no2)NC1=O (stereo not shown)
≥ 90%

Return reported mortality at 500 µg/mL; argument: O=C(Nc1ccc(F)cc1)C1=C(O)CC(c2nc(-c3cccc(Br)c3)no2)NC1=O (stereo not shown)
≥ 90%

Return reported mortality at 500 µg/mL; argument: CC(C)(C)OC(=O)c1ccc(NC(=O)C2=C(O)CC(c3cnc(Cl)c(-c4ccc(F)cc4)c3)NC2=O)cc1 (stereo not shown)
≥ 90%

Return reported mortality at 500 µg/mL; argument: O=C(Nc1ccc(F)cn1)C1=C(O)CC(c2nc(-c3ncco3)no2)NC1=O (stereo not shown)
≥ 90%

Return reported mortality at 500 µg/mL; argument: O=C(Nc1cc(F)ccn1)C1=C(O)CC(c2nc(-c3ccc(F)cc3)no2)NC1=O (stereo not shown)
≥ 90%

Return reported mortality at 500 µg/mL; argument: Cc1ccc(NC(=O)C2=C(O)CC(c3cnc(Cl)c(-c4cccc(C)c4)c3)NC2=O)cc1 (stereo not shown)
≥ 90%

Return reported mortality at 500 µg/mL; argument: O=C(Nc1ccc(F)cc1)C1=C(O)CC(c2nc(-c3ccc(F)cc3F)no2)NC1=O (stereo not shown)
≥ 90%

Return reported mortality at 500 µg/mL; argument: O=C(Nc1ccc(F)cc1)C1=C(O)CC(c2nc(-c3ccc(F)c(F)c3)no2)NC1=O (stereo not shown)
≥ 90%

Return reported mortality at 500 µg/mL; argument: O=C(Nc1nccs1)C1=C(O)CC(c2nc(-c3ccncc3F)no2)NC1=O (stereo not shown)
≥ 90%

Return reported mortality at 500 µg/mL; argument: Cc1cccc(-c2cc(C3CC(O)=C(C(=O)Nc4ccc([N+](=O)[O-])cc4)C(=O)N3)cnc2Cl)c1 (stereo not shown)
≥ 90%

Return reported mortality at 500 µg/mL; argument: Cc1cccc(-c2cc(C3CC(O)=C(C(=O)Nc4ccccn4)C(=O)N3)cnc2Cl)c1 (stereo not shown)
≥ 90%

Return reported mortality at 500 µg/mL; argument: O=C(Nc1ccc(F)cc1)C1=C(O)CC(c2nc(-c3ccc(Cl)cc3)no2)NC1=O (stereo not shown)
≥ 90%

Return reported mortality at 500 µg/mL; argument: O=C(Nc1ccc(F)cc1)C1=C(O)CC(c2nc(-c3cncc(F)c3)no2)NC1=O (stereo not shown)
≥ 90%

Return reported mortality at 500 µg/mL; argument: Cc1cccc(-c2cc(C3CC(O)=C(C(=O)Nc4cnccn4)C(=O)N3)cnc2Cl)c1 (stereo not shown)
≥ 90%

Return reported mortality at 500 µg/mL; argument: O=C(Nc1cccnc1)C1=C(O)CC(c2nc(-c3ccc(F)cc3F)no2)NC1=O (stereo not shown)
≥ 90%

Return reported mortality at 500 µg/mL; argument: O=C(Nc1cc(F)ccn1)C1=C(O)CC(c2nc(-c3ccc(F)c(Br)c3)no2)NC1=O (stereo not shown)
≥ 90%

Return reported mortality at 500 µg/mL; argument: O=C(Nc1nccs1)C1=C(O)CC(c2cnc(Cl)c(-c3ccc(F)cc3)c2)NC1=O (stereo not shown)
≥ 90%

Return reported mortality at 500 µg/mL; argument: O=C(Nc1ccc(Cl)nc1)C1=C(O)CC(c2cnc(Cl)c(-c3ccc(F)nc3)c2)NC1=O (stereo not shown)
≥ 90%

Return reported mortality at 500 µg/mL; argument: N#Cc1ccc(NC(=O)C2=C(O)CC(c3cnc(Cl)c(-c4ccccc4)c3)NC2=O)nc1 (stereo not shown)
≥ 90%

Return reported mortality at 500 µg/mL; argument: O=C(Nc1cnccn1)C1=C(O)CC(c2nc(-c3ccc(F)cn3)no2)NC1=O (stereo not shown)
≥ 90%

Return reported mortality at 500 µg/mL; argument: O=C(Nc1cc(F)ccn1)C1=C(O)CC(c2nc(-c3ccns3)no2)NC1=O (stereo not shown)
≥ 90%

Return reported mortality at 500 µg/mL; argument: O=C(Nc1ccccn1)C1=C(O)CC(c2cnc(Cl)c(-c3ccc(F)cc3)c2)NC1=O (stereo not shown)
≥ 90%

Return reported mortality at 500 µg/mL; argument: O=C(Nc1ccc(F)cc1)C1=C(O)CC(c2nc(-c3cc(F)cc(F)c3)no2)NC1=O (stereo not shown)
≥ 90%

Return reported mortality at 500 µg/mL; argument: O=C(Nc1cc(F)ccn1)C1=C(O)CC(c2nc(-c3cccc(F)c3)no2)NC1=O (stereo not shown)
≥ 90%

Return reported mortality at 500 µg/mL; argument: COc1cccc(-c2cc(C3CC(O)=C(C(=O)Nc4ccc(F)cc4)C(=O)N3)ccc2C(F)(F)F)c1 (stereo not shown)
≥ 90%

Cited source for all entries: patent EP4582413A1
